Tested on: MMRU
assay notes: sulfarodamine B cell growth assay (SRB)
Type: cell-based
assay conditions: Homo sapiens, Skin
observable: IC50 (µM)
Your answer should be a plain number; it is taken to be in µM.

Problem: // fetch IC50; item: CC/C=C\C/C=C\C/C=C\C/C=C\C/C=C\CCCC(=O)O ; system: MMRU
Solution: 36

* * *

Test system: SK-Mel-28
assay notes: sulfarodamine B cell growth assay (SRB)
Type: cell-based
assay conditions: Homo sapiens; SK-Mel-28, Skin
observable: pIC50
// field semantics: pIC50 = negative decimal log of concentration (mol/L)

Problem: Hello, please tell me recorded pIC50 for this one: CC/C=C\C/C=C\C/C=C\C/C=C\C/C=C\CCCC(=O)O
Solution: 4.34

* * *

Tested on: DU-145
assay notes: sulfarodamine B cell growth assay (SRB)
Type: cell-based
assay conditions: Homo sapiens; DU-145, Prostate
observable: IC50 (µM)
Your answer should be a plain number; it is taken to be in µM.

Problem: Hello, please tell me recorded IC50 for this one: CC/C=C\C/C=C\C/C=C\C/C=C\C/C=C\CCCC(=O)O [EPA, eicosapentaenoic acid]
Solution: 36

* * *

Tested on: Caski-1
assay notes: sulfarodamine B cell growth assay (SRB)
Assay type: cell-based
assay conditions: Homo sapiens; Caski-1, Cervix
observable: IC50 (µM)
Your answer should be a plain number; it is taken to be in µM.

Problem: Hello, please tell me recorded IC50 for this one: CC/C=C\C/C=C\C/C=C\C/C=C\C/C=C\CCCC(=O)O [EPA, eicosapentaenoic acid]
Solution: 76

* * *

System: LNCaP
assay notes: sulfarodamine B cell growth assay (SRB)
Assay type: cell-based
assay conditions: Homo sapiens, Prostate
observable: IC50 (µM)
Your answer should be a plain number; it is taken to be in µM.

Problem: Hello, please tell me recorded IC50 for this one: CC/C=C\C/C=C\C/C=C\C/C=C\C/C=C\CCCC(=O)O
Solution: 18

* * *

System: HTB-174
assay notes: sulfarodamine B cell growth assay (SRB)
Assay type: cell-based
assay conditions: Homo sapiens; HTB-174, Lung
observable: pIC50
// field semantics: pIC50 = negative decimal log of concentration (mol/L)

Problem: Hello, please tell me recorded pIC50 for this one: CC/C=C\C/C=C\C/C=C\C/C=C\C/C=C\CCCC(=O)O
Solution: 4.10

* * *

Test system: HeLa
assay notes: sulfarodamine B cell growth assay (SRB)
Assay type: cell-based
assay conditions: Homo sapiens, Cervix
observable: pIC50
// field semantics: pIC50 = negative decimal log of concentration (mol/L)

Problem: Hello, please tell me recorded pIC50 for this one: CC/C=C\C/C=C\C/C=C\C/C=C\C/C=C\CCCC(=O)O
Solution: 5.00

* * *

Test system: Hep-G2
assay notes: sulfarodamine B cell growth assay (SRB)
Type: cell-based
assay conditions: Homo sapiens, HepG2; Hep-G2, Liver
Text: The effect of EPA on the proliferation of a panel of cancer cell lines representative of most common human cancers was studied using the sulfarodamine B cell growth assay (SRB). EPA inhibited the proliferation of all cancer cell lines tested, including androgen dependent and androgen independent prostate cancer cell lines (LNCaP, PC-3 and DU-145) in a dose dependent manner (Table 1: effect of EPA on human cancer cello growth).
observable: pIC50
// field semantics: pIC50 = negative decimal log of concentration (mol/L)

Problem: Hello, please tell me recorded pIC50 for this one: CC/C=C\C/C=C\C/C=C\C/C=C\C/C=C\CCCC(=O)O
Solution: 4.62
